- ASSAY_PROTOCOL: blockers of HIV-1 ZM109 envelope-driven cell-cell fusion – HeLa effector, CEM target cells, luciferase, cherry-pick, dose response (AID 652058)
- MEASUREMENT_PARAMETERS: HeLa Env/CEM cell fusion, 16-24 h; series mostly up to 35 µM
The campaign covered roughly 1,200 compounds. About 870 (72%) were called active. Roughly 3% stayed inconclusive and do not appear here. The set was probably picked from earlier hits. These entries were drawn from the full list. Measured potencies and affinities stand elsewhere.
OBSERVATION_TYPE: activity change, negative = inhibition

COMPOUND	OBSERVATION_TYPE	MEASURED
C[C@@H]1CN([C@@H](C)CO)C(=O)c2cccc(NC(=O)c3cnccn3)c2O[C@H]1CN(C)Cc1ccc(Cl)c(Cl)c1	activity change, negative = inhibition	inactive
COC(=O)c1ccc(NC(=O)c2ccc(CN3CCOCC3)cc2)cc1	activity change, negative = inhibition	inactive
Cc1ccc(S(=O)(=O)N[C@H]2C=C[C@H](CC(=O)N3CCC(Cc4ccccc4)CC3)O[C@H]2CO)cc1	activity change, negative = inhibition	inactive
CS(=O)(=O)Nc1ccc2c(c1)[C@H]1C[C@H](CC(=O)N3CCc4ccccc4C3)O[C@H](CO)[C@H]1O2	activity change, negative = inhibition	inactive
CS(=O)(=O)Nc1ccc2c(c1)[C@@H]1C[C@@H](CC(=O)N3CCc4ccccc4C3)O[C@H](CO)[C@@H]1O2	activity change, negative = inhibition	inactive
CNC[C@@H]1Oc2c(N)cccc2C(=O)N([C@@H](C)CO)C[C@@H]1C	activity change, negative = inhibition	inactive
CS(=O)(=O)Nc1ccc2c(c1)[C@H]1C[C@H](CC(=O)NCc3ccc(-c4ccccc4)cc3)O[C@H](CO)[C@H]1O2	activity change, negative = inhibition	inactive
COc1ccc(S(=O)(=O)NNC(=O)C2Cc3c(ccc4ccccc34)O2)cc1 (stereo not drawn)	activity change, negative = inhibition	inactive
